I'd be grateful if you could share measured composite z-score for these entries.
- Protocol Text: small-molecule binders of probe aLefty1, primary screen, biochemical, small-molecule microarray, 635/667 nm fluorescence (AID 1153);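 also: score merges spot fluorescence with signal-to-noise ratio from the scanned slide images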
- Condition Context: higher = more signal
Please respond with just the number, no unit label.

Need composite z-score, item `CC[C@@H](c1ccccc1)n1c(=O)n2n(c1=O)[C@H]1[C@H](O)[C@@H]3O[C@@H]3C(=NOCC=C(C)CCC=C(C)C)[C@H]1CC2`
-0.241

Need composite z-score, item `O=C1O[C@@H](c2ccccc2)[C@@H](c2ccccc2)N2[C@@H](c3ccc(O)cc3)[C@]3(C(=O)Nc4ccccc43)[C@@H](C(=O)O)[C@H]12`
-0.0536

Need composite z-score, item `CO[C@H]1COC(=O)[C@@H]2CCCN2C(=O)[C@@H](C)COC(=O)CC=C[C@@H]1C`
-0.198

Need composite z-score, item `CC(CCC(=O)OC[C@H]1O[C@H](C#Cc2ccccc2)C=C[C@@H]1Oc1ccc(C)cc1)=NOC[C@@H](O)[C@H]1O[C@@H]2OC(C)(C)O[C@@H]2[C@H]1O`
-0.193

Need composite z-score, item `O=C1c2ccccc2[C@@]2(Cc3ccccc3N(C3CC3)C2=O)[C@H](c2ccc(CO)cc2)N1Cc1ccccc1C(F)(F)F`
0.566

Need composite z-score, item `COC(=O)[C@H](C)NC(=O)[C@@H](C)CO`
0.138

Need composite z-score, item `CC[C@@H](c1ccccc1)n1c(=O)n2n(c1=O)[C@H]1[C@H](O)[C@@H]3O[C@@H]3C(=NOCC(C)C)[C@H]1CC2`
-0.0508
